B1: TRIM15 (parent)
chain: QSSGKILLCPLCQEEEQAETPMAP

Variants of: B1
Assay: protein stability index of a GFP-peptide fusion (GPS, HEK-293T) (PSI 1-6); higher = more stable;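 also: lentivirally expressed fusions sorted by FACS into six bins by GFP to DsRed ratio, PSI derived from sequencing read proportions per bin multiplied by bin number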
Conditions: c terminus: a fixed tail appended
Entries are sorted into classes by protein stability index as follows: low group = under 3, middle group = from 3 up to 4, high group = 4 and over

Q) Field: class (protein stability index) — entry: QSSGKILLCPLCQEELQAETPMAP [E16L]
A) low group

Q) Would you kindly repeat that for QSSGKIVLCPLCQEEEQAETPMAP [L7V] ?
A) middle group

Q) Another: QSSGKILLCPLCQEAEQAETPMAP [E15A]
A) middle group

Q) Now this one: QSSGKILLCNLCQEEEQAETPMAP [P10N]
A) high group

Q) Lookup QSSGKILLCPLCQEEEQFETPMAP [A18F]
A) low group

Q) Next variant: QSSGLILLCPLCQEEEQAETPMAP [K5L]
A) low group

Q) Cool, now QSSGKIHLCPLCQEEEQAETPMAP [L7H]
A) middle group

Q) QSSGKILLCPLCKEEEQAETPMAP [Q13K] , same question.
A) middle group

Q) Okay, and SSSGKILLCPLCQEEEQAETPMAP [Q1S] ?
A) middle group

Q) Try the variant QSSGKILLCPLCQEEEQAEFPMAP [T20F]
A) low group

Q) Also, QSSMKILLCPLCQEEEQAETPMAP [G4M] please.
A) middle group

Q) And the next one, QSSGKILLCPLCCEEEQAETPMAP [Q13C] ?
A) low group

Q) Okay, and QSSGKILLCPLCQEEEQAETVMAP [P21V] ?
A) middle group

Q) Another variant: QSSCKILLCPLCQEEEQAETPMAP [G4C]
A) high group

Q) Follow-up entry: QSSGKNLLCPLCQEEEQAETPMAP [I6N]
A) high group

Q) Next record, please: QSSGKILLCPWCQEEEQAETPMAP [L11W]
A) middle group

Q) Check QSSGKILLCPLCQTEEQAETPMAP [E14T] too.
A) low group

Q) Same for QSSGKIFLCPLCQEEEQAETPMAP [L7F]
A) middle group
